Target: T1, Human PD-L1/CD274 with C-Fc Tag (hPD-L1-Fc) (human, UniProt Q9NZQ7 19-238)
T1 construct: range 19-238; ACRO Biosystem PD1-H5258, made in HEK293; also called human PD-L1-Fc; not shown: Fc fragment of human IgG1 at C-terminus
T1 sequence (Q9NZQ7 19-238 limits assumed): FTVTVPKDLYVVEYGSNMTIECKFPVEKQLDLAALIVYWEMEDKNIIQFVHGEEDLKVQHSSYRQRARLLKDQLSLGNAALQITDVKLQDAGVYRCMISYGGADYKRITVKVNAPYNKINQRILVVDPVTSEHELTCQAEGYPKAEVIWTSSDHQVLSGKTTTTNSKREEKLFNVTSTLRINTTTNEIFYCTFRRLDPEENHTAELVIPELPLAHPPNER
Assay: blocking ELISA on coated hPD-L1-Fc; blocked ligand: biotinylated hPD-1-N297A
Procedure: High-binding clear polystyrene 96 well plates (Nunc) were coated with 100 μl/well of coating solution consisting of 1 μg/ml hPD-L1-Fc overnight at 4° C. Then the plates were washed once on an automatic plate washer using washing buffer (PBS+0.1% Tween 20 (Sigma)). 200 μl of blocking buffer (PBS+1% BSA+1% normal goat serum+0.05% Tween-20) was added to each well and incubated 2 hours at room temp. […] The plates were read on a Thermo Multiscan FC at 450 nM (see FIG. 18A to 18D).
Exercise: for every item that follows, state its recorded IC50 (read off the curve).

Take each entry in turn and give its IC50 (read off the curve).
1. 23A11-H3L5 (antibody, V domains shown, Human IgG1 constant region with N297A; biotinylated in the alanine-scan ELISA; also called 23A11-H3L5-bio; humanized 23A11) VH: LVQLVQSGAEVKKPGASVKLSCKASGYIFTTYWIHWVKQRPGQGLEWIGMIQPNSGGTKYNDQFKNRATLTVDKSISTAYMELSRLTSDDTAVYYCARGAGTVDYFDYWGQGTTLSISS VL: DIVLTQSPASLAVSVGQRATITCRASESVDIYGNSFMHWYQQKPGQAPKLLIYRASNLESGIPARFSGSGSRTDFTLTINPVEANDTATYYCQQSNDDPYTFGGGTKLETK
2. 23F11-H4L4 (antibody, V domains shown, Human IgG1 constant region with N297A; biotinylated in the alanine-scan ELISA; also called 23F11-H4L4-bio; humanized 23F11) VH: QVQLVQSGAEVKKPGASVKLSCKASGYIFTTYWMHWVKQRPGQGLEWIGMIQPNSGGTKYNEKFKKKATLTVDKSISTAYMELSRLTSDDTAVYYCARGAGTVDYFDYWGQGSTLTVSS VL: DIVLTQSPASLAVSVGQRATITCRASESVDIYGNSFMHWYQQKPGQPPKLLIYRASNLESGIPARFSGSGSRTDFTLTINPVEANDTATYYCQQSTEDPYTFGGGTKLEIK
3. 4B6-H3L4 (antibody, V domains shown, produced in 293 cells; light chain constant region not described; also called humanized 4B6 H3L4) VH: QVQLVQSGAEVVKPGASVKISCKASGYVFTDYYMNWVKQAPGQGLEWIGDINPNNGGTSYNQKFQGRATVTVDKSTRTAYMELSRLRSDDTAVYYCVKWGDGPFAYWGQGTLVTVSS VL: DIQMTQSPSSLSASVGDRVTITCQASQNVGAAVAWYQQKPGKAPKLLIYSASNLYTGVPSRFSGSGSGTDFTLTISSLQPEDIATYFCQQYSNYPTFGSGTKLGIK

Reply:
["~0.05 µg/mL", "~0.03 µg/mL", "~0.03 µg/mL"]
